Just for reference, PubChem BioAssay AID651789 is where these values come from.

# protocol-text: Acumen qHTS Assay for Inhibitors of the mTORC1 Signaling Pathway in WT MEF Cells: Hit Validation; note: nearly all actives have a fitted effect of over 60% in size
# condition: Acumen imaging; series mostly up to 37.3 µM
Results filed as inconclusive are left out. Calls of active or inactive are those of the source. Calls come from the whole dose curve; as a rule, active = well fitted inhibition curve with a large enough effect; inconclusive = small, poorly fitted or top-dose-only effect; inactive = no such curve, though single readings can be large or run the other way.
The categories you may choose from are active, inactive

Examples from the recorded data:
COc1ccc(Oc2nc3c(C)cccn3c(=O)c2/C=C(\C#N)c2nc3ccccc3[nH]2)cc1	inactive
CN1CCN(C2(CNC(=O)COc3ccc(C(C)(C)C)cc3)CCCCC2)CC1	inactive
Cc1noc(/C=C/N(C)C)c1S(=O)(=O)N1CCCC(C(=O)Nc2ccc(F)cc2F)C1 (configuration not stated)	active

Here's the next entry for you.
Identify the outcome logged in this assay for the compound shown: Cc1cccc(C2C=C(c3ccc(C)c(C)c3)Nc3nnnn32)c1 (configuration not stated)
active

###

# protocol-text: Acumen qHTS Assay for Inhibitors of the mTORC1 Signaling Pathway in WT MEF Cells: Hit Validation; note: nearly all actives have a fitted effect of over 60% in size
# condition: Acumen imaging; series mostly up to 37.3 µM
Inconclusive results are not listed. Active and inactive are the calls of the source. The call rests on the fitted dose curve; in most records, active means well fitted inhibition curve with a large enough effect; inconclusive means small, poorly fitted or top-dose-only effect; inactive means no such curve, though single readings can be large or run the other way.
The categories you may choose from are active, inactive

Examples from the recorded data:
COc1ccc(Cl)cc1NC(=O)CCCS(=O)(=O)c1nc(-c2ccc(OC)c(OC)c2)cc(C(F)(F)F)n1	active
CCOc1ccccc1NC(=O)c1cn(C2CCCC2)c(=O)c2c1c1ccccc1n2C	inactive
COc1cc2ncnc(Nc3ccc(F)c(Cl)c3)c2cc1OCCCN1CCOCC1	inactive
CC(C)(C)c1ccc(S(=O)(=O)N2CCC(c3ccncc3)CC2)cc1	inactive
COc1ccc(OCC(=O)Nc2ccc3nn(-c4ccc(OC)cc4)nc3c2)cc1	inactive
CCOC(=O)c1ccc(NC(=O)c2nc(S(=O)(=O)Cc3ccccc3)ncc2Cl)cc1	active

Identify the outcome logged in this assay for the molecule shown: `Cc1ccc(NC(=O)c2ccc(CN3CCN(C)CC3)cc2)cc1Nc1nccc(-c2cccnc2)n1`
inactive

Identify the outcome logged in this assay for the molecule shown: `Cc1ccccc1CS(=O)(=O)c1ncc(Cl)c(C(=O)Nc2nnc(C(C)C)s2)n1`
active

Identify the outcome logged in this assay for the molecule shown: `Cc1ccc(NC(=O)CSc2ncc3c(n2)-c2ccccc2N(C)S3(=O)=O)c(Cl)c1`
inactive

###

# protocol-text: Acumen qHTS Assay for Inhibitors of the mTORC1 Signaling Pathway in WT MEF Cells: Hit Validation; note: nearly all actives have a fitted effect of over 60% in size
# condition: Acumen imaging; series mostly up to 37.3 µM
Inconclusive results are not listed. The source made the active and inactive calls. The call rests on the fitted dose curve; in most records, active means well fitted inhibition curve with a large enough effect; inconclusive means small, poorly fitted or top-dose-only effect; inactive means no such curve, though single readings can be large or run the other way.
The categories you may choose from are active, inactive

Examples from the recorded data:
Cc1nnc(C(=O)NC(C)(C)c2nc(C(=O)NCc3ccc(F)cc3)c(O)c(=O)n2C)o1	inactive
O=C(NCc1ccc(F)cc1)c1ccc2c(Cl)c3c(nc2c1)CCCC3	inactive
CCCCC(CC)CNC(=O)c1ccc(Cn2c(=O)[nH]c3cc(OC)c(OC)cc3c2=O)cc1 (centres undefined)	active
COc1ccc(S(=O)(=O)NCCc2csc3nc(-c4ccc(Cl)cc4)nn23)cc1C	inactive

Identify the outcome logged in this assay for the compound shown: `CCC1=Nc2cc(C(=O)NC3CCCC3)ccc2Sc2ccc(Cl)cc21`
active

Identify the outcome logged in this assay for the compound shown: CCn1c(CC2C(=O)N(C)c3ccc(Br)cc32)nc2ccccc2c1=O (centres undefined)
inactive

###

# protocol-text: Acumen qHTS Assay for Inhibitors of the mTORC1 Signaling Pathway in WT MEF Cells: Hit Validation; note: nearly all actives have a fitted effect of over 60% in size
# condition: Acumen imaging; series mostly up to 37.3 µM
Inconclusive results are not listed. Active and inactive are the calls of the source. The call rests on the fitted dose curve; in most records, active means well fitted inhibition curve with a large enough effect; inconclusive means small, poorly fitted or top-dose-only effect; inactive means no such curve, though single readings can be large or run the other way.
The categories you may choose from are true (1) (active), false (0) (inactive)

Examples from the recorded data:
CCOc1ccc(NC(=O)N(Cc2c[nH]c3ccccc23)C2CCCCCC2)cc1	false (0)
CCOc1ccc(-n2c(C)nc3c(cnn3-c3ccc(C)cc3)c2=O)cc1	false (0)
CCCS(=O)(=O)c1ncc(Cl)c(C(=O)N2CCN(c3ccc(OC)cc3)CC2)n1	true (1)
CC(CNC(=O)c1ccc(Nc2nc3ccccc3n3nnnc23)cc1)c1ccccc1 (stereo not drawn)	false (0)
NC(=O)c1ccc(-c2nc(-c3ccc4c(c3)OCO4)c(-c3ccccn3)[nH]2)cc1	false (0)

Identify the outcome logged in this assay for the compound shown: `CCc1ccccc1NC(=O)CSCc1cnn(-c2ccccc2)c1-n1cccc1`
false (0)

Identify the outcome logged in this assay for the compound shown: `COc1ccc(/C=C/C(=O)Nc2ccc3nc(N4CCC(C)CC4)cc(C)c3c2)cc1OC`
false (0)

Identify the outcome logged in this assay for the compound shown: `Cc1ccc(-c2nnc(Nc3ccc(O)cc3)c3ccccc23)cc1S(=O)(=O)N1CCCCC1`
false (0)
